Target: dopaminergic D2 receptor (Homo sapiens)
Sequence (P14416 whole entry): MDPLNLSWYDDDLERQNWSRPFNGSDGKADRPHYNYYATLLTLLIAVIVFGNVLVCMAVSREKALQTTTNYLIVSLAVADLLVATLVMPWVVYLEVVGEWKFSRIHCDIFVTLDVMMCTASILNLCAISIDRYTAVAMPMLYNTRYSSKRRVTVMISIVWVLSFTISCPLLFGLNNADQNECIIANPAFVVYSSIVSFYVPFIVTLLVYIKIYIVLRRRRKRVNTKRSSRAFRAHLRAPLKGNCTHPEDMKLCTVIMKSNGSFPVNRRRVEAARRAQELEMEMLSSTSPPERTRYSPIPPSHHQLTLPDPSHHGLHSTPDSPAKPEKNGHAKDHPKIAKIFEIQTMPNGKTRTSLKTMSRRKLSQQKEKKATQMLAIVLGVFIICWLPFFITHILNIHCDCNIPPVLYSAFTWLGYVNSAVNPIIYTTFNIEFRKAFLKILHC
Experiment: Cellular functional assay, dopaminergic D2 receptor (agonism/antagonism)
Assay type: cell-based
Conditions: HEK293; agonist effect, percent of control specific agonist response (3 μM dopamine for control); 1×10^−6 M; D2S (h), HEK-293 cells; read-out: D2-ag [%]
ENDPOINT NAME: activation at 1 µM (%)
Quick note: give the figure in %, leave out the unit.

The examples below pair each entry with its known result.
>>> numeric_result("Cc1cccc(S(=O)(=O)NCCCCN2CCN(c3noc4ccccc34)CC2)c1")
2
>>> numeric_result("O=S(=O)(NCCCCN1CCN(c2nsc3ccccc23)CC1)c1csc2ccccc12")
3
>>> numeric_result("O=S(=O)(NCCCCN1CCN(c2nsc3ccccc23)CC1)c1cc2ccccc2s1")
13

Look up activation at 1 µM: `O=S(=O)(NCCCCN1CCN(c2noc3ccccc23)CC1)c1ccc2cc(Cl)ccc2c1`
3

Then `Cc1c(S(=O)(=O)NCCCN2CCC(c3noc4cc(F)ccc34)CC2)sc2ccc(F)cc12` ?
1

Then `O=S(=O)(NCCCCN1CCN(c2cccc3[nH]ccc23)CC1)c1ccc2cc(Cl)ccc2c1` ?
30

Then `O=S(=O)(NCCCCN1CCC(c2noc3cc(F)ccc23)CC1)c1ccc(Br)cc1` ?
12

Then `O=S(=O)(NCCCCN1CCN(c2nsc3ccccc23)CC1)c1ccc2cc(Cl)ccc2c1` ?
4

Then `O=S(=O)(NCCCCN1CCN(c2cccc3[nH]ccc23)CC1)c1ccc(F)c(F)c1` ?
45

Then `O=S(=O)(NCCCCN1CCN(c2cccc3[nH]ccc23)CC1)c1cnc2ccccn12` ?
43

Then `O=S(=O)(NCCCCN1CCN(c2noc3ccccc23)CC1)c1cc2ccc(Cl)cc2s1` ?
5

Then `O=S(=O)(NCCCN1CCC(c2noc3cc(F)ccc23)CC1)c1ccc2cc(Cl)ccc2c1` ?
4

Then `O=S(=O)(NCCCCN1CCC(c2noc3cc(F)ccc23)CC1)c1ccc2cc(Cl)ccc2c1` ?
4
